The values you see were collected from ChEMBL document CHEMBL5550120.

# ASSAY SYSTEM: Protein cereblon/Eukaryotic peptide chain release factor GTP-binding subunit ERF3A (Homo sapiens, UniProt Q96SW2+P15170)
# Sequence (P15170 whole entry, looked up): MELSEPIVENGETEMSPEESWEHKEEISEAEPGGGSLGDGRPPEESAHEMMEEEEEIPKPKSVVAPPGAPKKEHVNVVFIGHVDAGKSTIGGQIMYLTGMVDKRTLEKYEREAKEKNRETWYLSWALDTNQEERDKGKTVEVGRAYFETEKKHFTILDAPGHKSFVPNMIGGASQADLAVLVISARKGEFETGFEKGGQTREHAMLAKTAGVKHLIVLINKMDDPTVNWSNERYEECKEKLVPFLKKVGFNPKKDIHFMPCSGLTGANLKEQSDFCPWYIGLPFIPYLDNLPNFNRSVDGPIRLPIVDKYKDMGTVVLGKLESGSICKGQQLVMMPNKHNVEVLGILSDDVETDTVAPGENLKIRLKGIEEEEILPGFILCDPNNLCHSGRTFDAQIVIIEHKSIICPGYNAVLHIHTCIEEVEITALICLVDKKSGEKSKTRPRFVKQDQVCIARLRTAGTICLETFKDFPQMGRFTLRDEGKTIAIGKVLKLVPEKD
# Sequence (Q96SW2 whole entry, looked up): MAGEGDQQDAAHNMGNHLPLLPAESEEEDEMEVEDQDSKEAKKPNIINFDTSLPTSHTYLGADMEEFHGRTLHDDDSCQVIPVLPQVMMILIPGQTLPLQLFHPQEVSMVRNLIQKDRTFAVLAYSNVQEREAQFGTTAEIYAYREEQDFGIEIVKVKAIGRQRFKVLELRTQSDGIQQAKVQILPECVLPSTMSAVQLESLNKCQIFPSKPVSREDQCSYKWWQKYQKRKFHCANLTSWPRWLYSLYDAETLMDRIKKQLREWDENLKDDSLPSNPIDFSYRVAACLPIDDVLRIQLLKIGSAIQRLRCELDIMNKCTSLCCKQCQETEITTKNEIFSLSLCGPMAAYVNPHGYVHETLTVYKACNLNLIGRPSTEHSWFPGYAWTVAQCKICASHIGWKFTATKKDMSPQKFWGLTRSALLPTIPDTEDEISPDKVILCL
# METHOD SUMMARY: Molecular glue activity at CRBN/GSPT1 in CRBN depleted human MOLT-4 cells assessed as induction of GSPT1 degradation at 3 uM measured after 3 hrs by immunoblot analysis
# Assay type: cell-based
Activity calls are given as the source filed them. No cut-off for these calls is given here.
RESULT TYPE: Activity

>>> result("Cc1cccc(Cl)c1OCCNS(=O)(=O)Nc1ccc2c(c1)CN(C1CCC(=O)NC1=O)C2=O (centres undefined)")
"inactive"
>>> result("CCCOc1ccccc1CNS(=O)(=O)Nc1ccc2c(c1)CN(C1CCC(=O)NC1=O)C2=O (centres undefined)")
"inactive"
>>> result("CC(C)CCOc1ccccc1OCCNS(=O)(=O)Nc1ccc2c(c1)CN(C1CCC(=O)NC1=O)C2=O (centres undefined)")
"inactive"
>>> result("CCC(C)(CCNS(=O)(=O)Nc1ccc2c(c1)CN(C1CCC(=O)NC1=O)C2=O)c1ccccc1OC (centres undefined)")
"inactive"
